# reported Large movements Duration; entries follow
System: Male Sprague-Dawley rats
Assay: Spontaneous locomotor activity in rats (sedative properties)
Format: in vivo
Conditions: rats, 1 mg/kg i.p., 3 hours after administration, 20 min period, mean ± SEM n=12
Protocol: A study was carried out in rats to determine whether the dihydrotetrabenazine isomers of the invention have sedative properties. […] At forty five minutes and 3 hours after administration, locomotor activity was determined during 20 minute periods using a video image analyzer (Videotrack, View Point, France). […] The number and duration of ambulatory movements and duration of inactivity was measured. […] The results were expressed as the means ±SEMs of the 12 individual values. […]
recorded-endpoint: Large movements Duration (s)

COc1cc2c(cc1OC)C1CC(=O)C(CC(C)C)CN1CC2 (racemic); 21.5
COc1cc2c(cc1OC)[C@H]1C[C@H](O)[C@@H](CC(C)C)CN1CC2 (single isomer, unassigned) [Isomer B]; 34.5
O=C(CCCN1CCC(O)(c2ccc(Cl)cc2)CC1)c1ccc(F)cc1 [haloperidol, reference compound]; 2.2
COc1cc2c(cc1OC)C1CC(O)C(CC(C)C)CN1CC2 (single isomer, unassigned; isomer c) [Isomer C]; 30.3

---

# reported Large movements Duration; entries follow
tested on: Male Sprague-Dawley rats; assay: Spontaneous locomotor activity in rats (sedative properties); assay type: in vivo; settings: rats, 1 mg/kg i.p., 45 minutes after administration, 20 min period, mean ± SEM n=12
recorded-endpoint: Large movements Duration (s)

COc1cc2c(cc1OC)C1CC(=O)C(CC(C)C)CN1CC2 (racemic); 46.5
COc1cc2c(cc1OC)C1CC(O)C(CC(C)C)CN1CC2 (single isomer, unassigned; isomer c) [Isomer C]; 71.8
O=C(CCCN1CCC(O)(c2ccc(Cl)cc2)CC1)c1ccc(F)cc1 [haloperidol, reference compound]; 14.8
COc1cc2c(cc1OC)[C@H]1C[C@H](O)[C@@H](CC(C)C)CN1CC2 (single isomer, unassigned) [Isomer B]; 87.0

---

tested on: Male Sprague-Dawley rats; assay: Spontaneous locomotor activity in rats (sedative properties); format: in vivo; conditions: rats, 1 mg/kg i.p., 3 hours after administration, 20 min period, mean ± SEM n=12
recorded-endpoint: Inactivity Duration (s)

COc1cc2c(cc1OC)C1CC(=O)C(CC(C)C)CN1CC2 (racemic); 556.9
COc1cc2c(cc1OC)C1CC(O)C(CC(C)C)CN1CC2 (single isomer, unassigned; isomer c) [Isomer C]; 510.2
O=C(CCCN1CCC(O)(c2ccc(Cl)cc2)CC1)c1ccc(F)cc1 [haloperidol, reference compound]; 723.6
COc1cc2c(cc1OC)[C@H]1C[C@H](O)[C@@H](CC(C)C)CN1CC2 (single isomer, unassigned) [Isomer B]; 525.8
